TARGET_SYSTEM: Renin (Homo sapiens)
Sequence (P00797 whole entry): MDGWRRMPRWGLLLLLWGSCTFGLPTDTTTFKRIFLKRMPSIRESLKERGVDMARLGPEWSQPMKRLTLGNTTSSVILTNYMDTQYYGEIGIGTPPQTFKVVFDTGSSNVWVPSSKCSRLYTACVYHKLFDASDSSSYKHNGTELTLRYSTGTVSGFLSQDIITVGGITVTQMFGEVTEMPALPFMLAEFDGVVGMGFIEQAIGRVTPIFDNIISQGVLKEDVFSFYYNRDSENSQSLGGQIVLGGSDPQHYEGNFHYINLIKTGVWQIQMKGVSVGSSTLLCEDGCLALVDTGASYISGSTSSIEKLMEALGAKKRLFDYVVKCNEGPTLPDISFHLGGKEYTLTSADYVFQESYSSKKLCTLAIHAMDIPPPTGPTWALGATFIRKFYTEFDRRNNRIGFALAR
ASSAY_TEXT: Inhibition of human recombinant renin in presence of human plasma by competitive radioimmunoassay
Assay type: cell-free
PROPERTY: IC50 (µM)

a = CNC[C@H](CC1CCCCC1)NC(=O)N1CCC[C@@H]([C@@](O)(CCCCOC)c2cc(C)ccc2F)C1
b = CCc1cccc([C@](O)(CCCCOC)[C@@H]2CCCN(C(=O)N[C@H](CNC)CC3CCCCC3)C2)c1
c = CNC[C@H](CC1CCCCC1)NC(=O)N1CCC[C@@H]([C@@](O)(CCCCOC)c2cc(F)cc(Cl)c2)C1
d = CCOCCCC[C@@](O)(c1ccccc1)[C@@H]1CCCN(C(=O)N[C@H](CNC)CC2CCCCC2)C1
## Task Order these by IC50, descending, and give the full ranking. // ordering of labels required in reply
## Result b, d, a, c
(b: 0.285 µM, d: 0.162 µM, a: 0.067 µM, c: 0.028 µM)
